TGT: TNFα (Homo sapiens, UniProt P01375)
Sequence (P01375 77-233 limits assumed): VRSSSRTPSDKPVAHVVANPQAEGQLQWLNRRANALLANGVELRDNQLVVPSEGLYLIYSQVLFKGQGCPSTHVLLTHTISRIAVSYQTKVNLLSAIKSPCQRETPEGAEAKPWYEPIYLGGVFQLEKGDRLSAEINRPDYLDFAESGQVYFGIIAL
ASSAY_EXPLANATION: TNF induced HEK-Blue assay (NF-kB-driven secreted alkaline phosphatase reporter)
Assay type: cell-based
CONDITION_DETAILS: TNFα 0.5 ng/mL, HEK-Blue-CD40L cells, 18 h; read-out: TNF induced HEK-Blue assay IC50 value
Description: TNF or CD40L-Induced HEK-Blue Assay Test compounds serially diluted in DMSO were plated in an assay plate (LABCYTE, Cat. # LP-0200) at final concentrations ranging from 0.004 μM to 25 μM. […] Secreted alkaline phosphatase expression was measured using QUANTI-Blue™ (INVIVOGEN, Cat. Code rep-qb1) according to manufacturer's specifications and the assay plate was read on a PerkinElmer Envision at 620 nm. […]
METRIC_NAME: IC50

INSERT INTO results (compound, metric_name, reported_result) VALUES
  ('Cc1nc2ccc(-c3cnc(N4CCOCC4)nc3)cc2c(N[C@H](C)c2cc(C(N)=O)ccc2F)c1Cl [Example 313]', 'IC50', '< 1000 nM');

Task item: What measured IC50 goes with COc1ccccc1-c1ccc(F)c([C@@H](C)Nc2c(Cl)cnc3ccccc23)c1 [Example 549] ?
Reply: 1000 to 10000 nM

Task item: What about this compound? O=C1CN(c2ncc(-c3ccc4ncc(Cl)c(N[C@@H](c5ccccc5F)C(F)F)c4c3)cn2)CCN1 [Example 79]
Reply: < 1000 nM

Task item: Next compound: C[C@@H](Nc1c(Cl)cnc2ccccc12)c1cc(-c2cnn(C(F)F)c2)ccc1F [Example 471]
Reply: 1000 to 10000 nM

Task item: Next record, please: C[C@@H](Nc1c(Cl)cnc2ccc(-c3ccc(N4CCOC[C@H]4CO)nc3)cc12)c1ccccc1F [Example 85]
Reply: 1000 to 10000 nM

Task item: Lookup CC(C)(O)c1ncc(-c2ccc3ncc(Cl)c(NC(C)(C)c4cccc(C(F)(F)F)c4)c3c2)cn1 [Example 182]
Reply: 10000 to 25000 nM

Task item: Then Cc1nc2cc(F)c(-c3cnc(N4CCNC(=O)C4)nc3)cc2c(N[C@H](C)c2cc(C(N)=O)ccc2F)c1Cl [Example 448] ?
Reply: < 1000 nM

Task item: Request: C[C@@H](Nc1c(Cl)cnc2ccc(-c3cnc(C(C)(C)O)nc3)cc12)c1cc(N2CCCC2=O)ccc1F [Example 362]
Reply: < 1000 nM

Task item: Next: CC(Nc1c(Cl)cnc2ccc(-c3ccc(C(C)(C)O)cc3)cc12)c1cnccn1 (racemic) [Example 198]
Reply: < 1000 nM

---

TGT: TNFα (Homo sapiens, UniProt P01375)
ASSAY_EXPLANATION: TNF induced HEK-Blue assay (NF-kB-driven secreted alkaline phosphatase reporter)
Assay type: cell-based
CONDITION_DETAILS: TNFα 0.5 ng/mL, HEK-Blue-CD40L cells, 18 h; read-out: TNF induced HEK-Blue assay IC50 value
pIC50: −log10 of the molar value.
METRIC_NAME: pIC50

Some solved entries appear below for comparison.
INSERT INTO assay_data (compound, reported_result) VALUES
  ('CC(C)(O)c1ncc(-c2nc3c(NC(c4ccccc4)C(F)F)c(Cl)cnc3cc2F)cn1 (racemic)', '> 6.00'),
  ('COc1cncc(-c2ccc(F)c([C@@H](C)Nc3c(Cl)cnc4ccccc34)c2)c1', '> 6.00'),
  ('Cc1ccc(C)c(Nc2c(Cl)c(C(=O)Nc3ccccc3)nc3ccc(-c4ccc(C#N)nc4)cc23)c1', '5.00 to 6.00'),
  ('Cc1ccc(C)c(Nc2c(Cl)c(C)nc3ccc(-c4ccc(CN5CCNCC5)cc4)cc23)c1', '> 6.00'),
  ('Cc1ccc(C)c(Nc2c(Cl)c(C(=O)Nc3cccnc3)nc3ccc(-c4ccc(C#N)nc4)cc23)c1', '> 6.00');

Task item: Reported pIC50 for TNFα (Homo sapiens, UniProt P01375), given CC(Nc1ccnc2cc(F)c(-c3cnc(C4(O)CCOCC4)nc3)cc12)c1ccccc1F (racemic) ?
Reply: 4.60 to 5.00
